test_details: Human HepG2 cell viability assay in 384 well format
Assay type: toxicity, cell-based
Design: dose 125 nL, time 70.5 hour; concentration not given beside the values
measurement_parameters: HepG2 cells, read-out: Inhibition
Reported cytotoxicity at 70.5 h values follow for various molecules
A number alone suffices; assume %.

# annotated cases, reported cytotoxicity at 70.5 h shown
{"columns": ["molecule", "unit_spec", "cytotoxicity at 70.5 h"],
 "data": [
  ["CC(C)Oc1cccc(CC(=O)NC2CCN(CC(N)=O)CC2)c1", "%", -10.1],
  ["O=C(NC1CCCc2nc(N3CCOCC3)ncc21)C1CCCCC1 (centres undefined)", "%", 13.8],
  ["CC(C)n1nc(CNc2ncccn2)c2c1CN(C)CC2", "%", -6]
]}

Prompt line: Identify cytotoxicity at 70.5 h associated with the molecule "CCCS(=O)(=O)N1CCC2(CC1)CCn1c(-c3cnn(C)c3)cnc12"
Response line: -11.3

Prompt line: Identify cytotoxicity at 70.5 h associated with the molecule COCC(C)NC(=O)N1CCN(S(C)(=O)=O)CC1 (centres undefined)
Response line: -2.46

Prompt line: Identify cytotoxicity at 70.5 h associated with the molecule "c1cc(-c2c[nH]c([C@@H]3COCCN3CC3CC3)n2)ccn1"
Response line: -1.9

Prompt line: Identify cytotoxicity at 70.5 h associated with the molecule Cn1ccc(C2CCCCN2C(=O)c2cccc(-n3cccn3)c2)n1 (centres undefined)
Response line: 10.7

Prompt line: Identify cytotoxicity at 70.5 h associated with the molecule "O=C(NC[C@@H]1CCCN1)c1cc(COc2cccc(C(F)(F)F)c2)[nH]n1"
Response line: -1.5

Prompt line: Identify cytotoxicity at 70.5 h associated with the molecule CC(C)N1C(=O)CC(NC(=O)c2cc(Cl)sc2Cl)C1=O (centres undefined)
Response line: -8.84

Prompt line: Identify cytotoxicity at 70.5 h associated with the molecule "Cc1nn(CCC#N)c(C)c1CCC(=O)N(C)C"
Response line: 13.3

Prompt line: Identify cytotoxicity at 70.5 h associated with the molecule "O=C(O)c1cc(-c2cccnc2)cc(S(=O)(=O)NCc2ccccn2)c1"
Response line: -5.41

Prompt line: Identify cytotoxicity at 70.5 h associated with the molecule "Cc1cc(C(=O)Nc2ccc3c(ccn3CCN3CCOCC3)c2)on1"
Response line: -5.31

Prompt line: Identify cytotoxicity at 70.5 h associated with the molecule "C[C@@H]1CN(c2ccc(Cl)cn2)C[C@]1(C)O"
Response line: 3.11

Prompt line: Identify cytotoxicity at 70.5 h associated with the molecule COc1cccc(OC)c1C(C(=O)O)N(C)Cc1c(C)n[nH]c1C (centres undefined)
Response line: -14.8

Prompt line: Identify cytotoxicity at 70.5 h associated with the molecule CC1CCCN(C(=O)c2cccc(CS(C)(=O)=O)c2)C1 (centres undefined)
Response line: 7.89

* * *

Reported cytotoxicity at 70.5 h values follow for various molecules
test_details: Human HepG2 cell viability assay in 384 well format
Type: toxicity, cell-based
Set-up: dose 125 nL, time 70.5 hour; concentration not given beside the values
measurement_parameters: HepG2 cells, read-out: Inhibition
A number alone suffices; assume %.

Prompt line: Identify cytotoxicity at 70.5 h associated with the molecule "Cc1ccc(N2CC[C@@]3(O)CCN(S(C)(=O)=O)C[C@H]3C2)nn1"
Response line: 6.8

Prompt line: Identify cytotoxicity at 70.5 h associated with the molecule CN(C)c1cc(C2CCCN(S(=O)(=O)c3cn[nH]c3)C2)ccn1 (stereo not given)
Response line: -1.45

Prompt line: Identify cytotoxicity at 70.5 h associated with the molecule "COc1cc(C(=O)N2CCC3(CC2)Nc2ccccc2NC3=O)ccn1"
Response line: 19

Prompt line: Identify cytotoxicity at 70.5 h associated with the molecule Cc1cnn(CCNCC(O)COc2ccc(Cl)cc2)c1 (stereo not given)
Response line: 2.45

Prompt line: Identify cytotoxicity at 70.5 h associated with the molecule Cc1ccoc1-c1nnc(CN2CCOC(Cn3cccn3)C2)o1 (stereo not given)
Response line: -2.97

Prompt line: Identify cytotoxicity at 70.5 h associated with the molecule "O=C(NCc1ccccc1)N1CCc2ncnc(NC3CC3)c2CC1"
Response line: -3.8

Prompt line: Identify cytotoxicity at 70.5 h associated with the molecule "COc1cccc2c1N(CC(=O)Nc1ccc(Br)cn1)CCC2"
Response line: -3.62

* * *

Reported cytotoxicity at 70.5 h values follow for various molecules
test_details: Human HepG2 cell viability assay in 384 well format
Format: toxicity, cell-based
Set-up: dose 125 nL, time 70.5 hour; concentration not given beside the values
measurement_parameters: HepG2 cells, read-out: Inhibition
A number alone suffices; assume %.

{"columns": ["molecule", "cytotoxicity at 70.5 h [%]"],
 "data": [
  ["Cc1nc2ccc(C(=O)N3CC[C@H](O)[C@@H](N4CCOCC4)CC3)cc2[nH]1", 0.0805],
  ["CN(Cc1cnc(C(C)(C)C)nc1)Cc1nc2ccc(F)cc2[nH]1", -5.62],
  ["CC(C)N1CCCC(C(=O)N(C)CCCc2cnn(C)c2)C1 (stereo unspecified)", -2.41],
  ["O=C(NCc1cccc(-n2cncn2)c1)NCC(C1CC1)C1CC1", -5.02],
  ["CC1=Nc2c(c(=O)[nH]n2C2CCOCC2)C(c2cccc(Br)c2)S1 (stereo unspecified)", 4.78],
  ["O=C(NCc1nnc2n1CCC2)N(Cc1ccco1)C1CC1", -10.5],
  ["C[C@@H]1CN(Cc2cc(C3CCCCC3)no2)CC[C@@]1(O)C1CC1", 6.92],
  ["COc1cc(C)c(CNC(C)c2csc(C)n2)cc1OC (stereo unspecified)", -2.42]
]}

Prompt line: Identify cytotoxicity at 70.5 h associated with the molecule "CCNC(=O)c1ccc(CNCc2c(C)nn(C)c2N(C)C)cc1"
Response line: 24.8

Prompt line: Identify cytotoxicity at 70.5 h associated with the molecule CN(CCC(F)(F)F)C(=O)C1CCCN1C(=O)OC(C)(C)C (stereo unspecified)
Response line: 0.473

Prompt line: Identify cytotoxicity at 70.5 h associated with the molecule "CC(=O)N1CCN(C[C@H]2CC[C@@H](Cc3ccc4c(c3)OCO4)O2)CC1"
Response line: -1.65

* * *

test_details: Human HepG2 cell viability assay in 384 well format
Assay type: toxicity, cell-based
Parameters: dose 125 nL, time 70.5 hour; concentration not given beside the values
measurement_parameters: HepG2 cells, read-out: Inhibition
Reported cytotoxicity at 70.5 h values follow for various compounds
A number alone suffices; assume %.

# annotated cases, reported cytotoxicity at 70.5 h shown
{"columns": ["compound", "unit_spec", "cytotoxicity at 70.5 h"],
 "data": [
  ["Fc1ccc(CN2C[C@@H](OCc3ccccn3)[C@H]3COC[C@H]32)cc1", "%", -1.1],
  ["O=c1n(CCSCCOc2ccc(Br)cc2)nc2ccccn12", "%", -10.7]
]}

Prompt line: Identify cytotoxicity at 70.5 h associated with the compound "CSc1ccc(-c2nc(CN3CCC(NC(C)=O)CC3)c(C)o2)cc1"
Response line: -7.12

Prompt line: Identify cytotoxicity at 70.5 h associated with the compound CN1CCN(Cc2cccnc2)C2(CCN(c3ncccn3)C2)C1=O (stereo not drawn)
Response line: -5.32

Prompt line: Identify cytotoxicity at 70.5 h associated with the compound Cc1nn(C)c(Oc2ccccc2)c1CNC1CCCCNC1=O (stereo not drawn)
Response line: -6.4

Prompt line: Identify cytotoxicity at 70.5 h associated with the compound CC(NC1CCN(CC(=O)N(C)C)CC1)c1cnn(C(C)C)c1 (stereo not drawn)
Response line: -14.3

Prompt line: Identify cytotoxicity at 70.5 h associated with the compound "Cc1nc(CN2CCN3C[C@H](Oc4cncnc4)C[C@H]3C2)cs1"
Response line: 5.24

Prompt line: Identify cytotoxicity at 70.5 h associated with the compound CCC(=O)N1CCC1c1cc(NC2CCCC2)nc(C)n1 (stereo not drawn)
Response line: -2.68

Prompt line: Identify cytotoxicity at 70.5 h associated with the compound O=C(CCc1ccccc1F)N1CCCC(OCc2cccnc2)C1 (stereo not drawn)
Response line: -9.56

Prompt line: Identify cytotoxicity at 70.5 h associated with the compound "Cc1cc(C)nc(N2CCC(CNC(=O)c3cnccn3)CC2)n1"
Response line: 3.07

Prompt line: Identify cytotoxicity at 70.5 h associated with the compound "CCc1c(NCc2ccncc2)cnn1CC(C)C"
Response line: -5.95

Prompt line: Identify cytotoxicity at 70.5 h associated with the compound Cc1noc(C(C)C)c1C(=O)NCC(c1ccccc1)N(C)C (stereo not drawn)
Response line: -8.37

Prompt line: Identify cytotoxicity at 70.5 h associated with the compound CCC(C)NS(=O)(=O)c1ccc(/C=C\c2onc(C)c2NC(C)=O)cc1 (stereo not drawn)
Response line: -4.12

Prompt line: Identify cytotoxicity at 70.5 h associated with the compound COCCC1(CO)CCCN(C(=O)c2cc(C#N)c(=O)[nH]c2C)C1 (stereo not drawn)
Response line: -0.759

Prompt line: Identify cytotoxicity at 70.5 h associated with the compound O=C(c1cccs1)N1CCOCC2(C1)CN(c1ccccc1)C(=O)CO2 (stereo not drawn)
Response line: -9.8
